biological target: T1, human MSLN-R2-his protein (human, UniProt Q13421 391-486); experiment: ELISA on coated antigen, antibody 2 nM
T1 construct: it is put last here; also called human MSLN-R2 protein; hMSLN-R2-his; not shown: His tag
T1 sequence (Q13421 other isoform, or with tags, fused parts or gaps): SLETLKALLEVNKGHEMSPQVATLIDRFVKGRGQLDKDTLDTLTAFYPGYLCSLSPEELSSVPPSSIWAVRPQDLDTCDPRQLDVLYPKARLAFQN
Parameter OD450: see the listing below.
Just the number in OD, nothing appended.

S009-F7.53.2 (antibody, human IgG1, kappa, V domains shown, Human-murine chimeric antibody, human IgG1 heavy and kappa light constant regions) VH: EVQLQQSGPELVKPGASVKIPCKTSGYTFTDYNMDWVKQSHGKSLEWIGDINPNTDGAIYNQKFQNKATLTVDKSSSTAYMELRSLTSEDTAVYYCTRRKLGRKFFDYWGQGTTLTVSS VL: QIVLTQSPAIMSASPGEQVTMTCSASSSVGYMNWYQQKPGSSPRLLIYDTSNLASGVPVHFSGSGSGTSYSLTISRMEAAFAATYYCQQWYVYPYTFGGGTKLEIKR	0.05

Alright, here's another binder for you.
Param item = S009-F7.23.19 (antibody, human IgG1, kappa, V domains shown, Human-murine chimeric antibody, human IgG1 heavy and kappa light constant regions) VH: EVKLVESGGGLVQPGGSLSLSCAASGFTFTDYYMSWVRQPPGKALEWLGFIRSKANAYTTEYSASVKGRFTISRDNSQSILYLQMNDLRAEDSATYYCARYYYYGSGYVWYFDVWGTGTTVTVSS VL: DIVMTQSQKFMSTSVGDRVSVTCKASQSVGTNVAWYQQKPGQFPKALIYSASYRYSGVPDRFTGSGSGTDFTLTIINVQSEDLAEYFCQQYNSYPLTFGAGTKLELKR ; retrieve measured OD450.
0.05
